- Tested on: Escherichia coli (ATCC 25922)
- experiment_notes: Paper disk diffusion MIC
- Type: cell-based
- condition_notes: ATCC25922, 24 h, read-out: Minimal Inhibitory Concentration (MIC)
Kindly state log10 MIC for each of the entries shown.
Note: values are log10 of MIC expressed in µg/mL.

These solved cases illustrate the format of a correct answer.
[
  {
    "compound": "CN(C)[C@@H]1C(O)=C(C(N)=O)C(=O)[C@@]2(O)C(O)=C3C(=O)c4c(O)cccc4[C@@](C)(O)[C@H]3C[C@@H]12 [Tetracycline, reference compound]",
    "log10 MIC": 1.19
  },
  {
    "compound": "NS(=O)(=O)c1ccc(-n2c(SCC(=O)Nc3ccccc3)nc3ccccc3c2=O)cc1 [Compound 5]",
    "log10 MIC": 1.00
  },
  {
    "compound": "CN[C@H](CC(C)C)C(=O)N[C@H]1C(=O)N[C@@H](CC(N)=O)C(=O)N[C@H]2C(=O)N[C@H]3C(=O)N[C@H](C(=O)N[C@H](C(=O)O)c4cc(O)cc(O)c4-c4cc3ccc4O)[C@H](O)c3ccc(c(Cl)c3)Oc3cc2cc(c3O[C@@H]2O[C@H](CO)[C@@H](O)[C@H](O)[C@H]2O[C@H]2C[C@](C)(N)[C@H](O)[C@H](C)O2)Oc2ccc(cc2Cl)[C@H]1O [Vancomycin, reference compound]",
    "log10 MIC": 0.14
  },
  {
    "compound": "Cc1ccccc1NC(=O)CSc1nc2ccccc2c(=O)n1-c1ccc(S(N)(=O)=O)cc1 [Compound 6]",
    "log10 MIC": 0.70
  }
]

GET /values?readout=log10 MIC&item= O=C(O)c1cn(C2CC2)c2cc(N3CCNCC3)c(F)cc2c1=O [Ciprofloxacin, reference compound]
0.20

Data origin, for the record: paper PMC7211327
